Cited source: ChEMBL document CHEMBL3351820

# method-notes: Hemolytic activity in human RBCs
# Format: ADME, cell-based, Erythrocyte
# condition-details: red blood cells (RBCs)
Where a SMILES comes first, the peptide text is derived from it. [ ]: non-standard residue; d: D form. The star is where a group is joined. Palmitoyl = CCCCCCCCCCCCCCCC(=O)*; Lauroyl = CCCCCCCCCCCC(=O)*; Decanoyl = CCCCCCCCCC(=O)*; 3Abz = Nc1cccc(C(=O)O)c1; Orn = NCCC[CH](N)C(=O)O
endpoint-label: HC50 (µg/mL)
Your answer is read as µg/mL, so omit the unit and give the number.

| molecule | units-text | HC50 |
| --- | --- | --- |
| CCCCCCCCCCCCCC(=O)Nc1cccc(C(=O)NC(CCCN)C(=O)NC(CCCN)C(=O)NC(CCCN)C(N)=O)c1 (centres undefined) | µg/mL | 750 |

HC50 lookup needed for CCCCCCCCCCCC(=O)Nc1cccc(C(=O)NC(CCCN)C(=O)NC(CCCN)C(=O)NC(CCCN)C(=O)NC(CCCN)C(N)=O)c1 (centres undefined) ({Lauroyl-3Abz}-[Orn][Orn][Orn][Orn]-NH2; configuration not given here) , thanks.
750

# lookup: HC50 of CCCCCCCCCC(=O)Nc1cccc(C(=O)NC(CCCN)C(=O)NC(CCCN)C(=O)NC(CCCN)C(=O)NC(CCCN)C(N)=O)c1 (centres undefined) ({Decanoyl-3Abz}-[Orn][Orn][Orn][Orn]-NH2; configuration not given here)
1000

Look at this molecule and give its reported HC50. CCCCCCCCCCCCCCCC(=O)Nc1cccc(C(=O)NC(CCCN)C(=O)NC(CCCN)C(=O)NC(CCCN)C(=O)NC(CCCN)C(N)=O)c1 (centres undefined) ({Palmitoyl-3Abz}-[Orn][Orn][Orn][Orn]-NH2; configuration not given here)
350
